# test description: chemical genetic growth profiling, strain panel (AID 1159580);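 further: tested at 20 µM; growth read once vehicle control cultures reached saturation at 30 °C; 1 = growth at the plate median or of vehicle wells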
# experimental setup: S. cerevisiae deletion strains, growth OD, locus YMR129W, active compounds read low
The campaign covered roughly 5,500 compounds. About 2,000 (36%) were called active. Not shown: some 18% with an inconclusive outcome. This is one part of the list.
One threshold, 1, splits the recorded normalized growth values: lower ones are 1 (yes), equal or higher ones are 0 (no).

# example entries with known answers
compound	answer label
CC(C)OC(=O)C(C)(C)Oc1ccc(C(=O)c2ccc(Cl)cc2)cc1	1 (yes)
CN(C)C(=S)SSC(=S)N(C)C	1 (yes)

Now look at this one.
API: query returns whether the compound falls strictly under 1 in normalized growth. Query: CC1=C(/C=C/C(C)=C/C=C/C(C)=C/C=C/C=C(C)/C=C/C=C(C)/C=C/C2=C(C)C(=O)C(O)CC2(C)C)C(C)(C)CC(O)C1=O (stereo not given)
0 (no)

###

# test description: chemical genetic growth profiling, strain panel (AID 1159580);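 further: tested at 20 µM; growth read once vehicle control cultures reached saturation at 30 °C; 1 = growth at the plate median or of vehicle wells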
# experimental setup: S. cerevisiae deletion strains, growth OD, locus YLR258W, strain gsy2
The campaign covered roughly 5,500 compounds. About 2,000 (36%) were called active. Roughly 18% stayed inconclusive and do not appear here. No stated cut-off is given here; in the data, active means normalized growth mostly below about 0.91 (no sharp cut-off); inconclusive means no clear call, values can overlap the other calls; inactive means mostly above about 0.92. The list shows a part of the results.
Could you please pick one outcome from this set? active, inactive

# example entries with known answers
> print(dat)
                                   molecule  answer.label
1  COCCc1ccc(OCC(O)CNC(C)C)cc1 (configuration not stated)      inactive
2  CCC(=O)O[C@H]1CCC2C3CCC4=CC(=O)CC[C@]4(C)C3CC[C@@]21C (some centres not stated)        active

For Cc1cccc(C)c1OCC(C)N (configuration not stated) , what call appears in the results of this test?
inactive

For C[C@]12CCC(=O)C=C1CCC1C2CC[C@@]2(C)C1CC[C@@H]2O (some centres not stated) , what call appears in the results of this test?
inactive

For `C[N+](C)(C)CCOC(N)=O` , what call appears in the results of this test?
inactive

For CC(Oc1ccccc1)C(=O)N[C@@H]1C(=O)N2[C@@H]1SC(C)(C)[C@@H]2C(=O)O (some centres not stated) , what call appears in the results of this test?
inactive

For CC(=O)O[C@@H]1C[C@@]2(C)C(CC[C@@H]2C(C)=O)C2CCC3=CC(=O)CC[C@]3(C)C21 (some centres not stated) , what call appears in the results of this test?
inactive

###

# test description: chemical genetic growth profiling, strain panel (AID 1159580);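 further: tested at 20 µM; growth read once vehicle control cultures reached saturation at 30 °C; 1 = growth at the plate median or of vehicle wells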
# experimental setup: S. cerevisiae deletion strains, growth OD, locus YJL187C, strain SWE1
In all, about 5,500 compounds went through this assay and about 2,000 (36%) were called active. Not shown: some 18% with an inconclusive outcome. Rule as the data show it: active = normalized growth mostly below about 0.91 (no sharp cut-off); inconclusive = no clear call, values can overlap the other calls; inactive = mostly above about 0.92. The list shows a part of the results.
Could you please pick one outcome from this set? active, inactive

> print(dat)
                                   molecule  answer.label
1  CC(C)OC(=O)C(C)(C)Oc1ccc(C(=O)c2ccc(Cl)cc2)cc1      inactive
2  COc1cc(NC(C)CCCN)c2ncccc2c1 (stereo not given)      inactive
3  ClC1=C(Cl)C2(Cl)C3C4C=CC(C4)C3C1(Cl)C2(Cl)Cl (stereo not given)      inactive
4  O=C(O)C1(O)C[C@@H](O)C(O)[C@H](O)C1 (stereo not given in full)      inactive
5  O=C(Oc1ccc(C(F)(F)F)cc1[N+](=O)[O-])c1c(F)cccc1F        active

Now look at this one.
For C[C@]12CCC(=O)C=C1CCC1C2CC[C@@]2(C)C1CC[C@@H]2O (stereo not given in full) , what call appears in the results of this test?
inactive
